Listing of recorded GI50 by entry.
- Test system: NCI-H460
- Method Description: NCI tumour cell line growth inhibition, 48 h
The source made the active and inactive calls. No stated cut-off is given here; in the data, active = GI50 up to about 1.1 µM and inactive = higher.
Reported Endpoint: GI50

CCCCC[C@@H]1OC(=O)[C@@]2(CC3c4ccccc4C2c2ccccc23)[C@H]1C(=O)OC: 11.6 µM (inactive)
NCCSCC(N)C(=O)O (stereo not given): 60.1 µM (inactive)
CC(=O)Oc1ccccc1C(=O)Nc1ncc([N+](=O)[O-])s1 [NITAZOXANIDE]: 17.1 µM (inactive)
NC(=S)N1N=C(c2ccccc2O)CC1c1ccccc1 (stereo not given): 14 µM (inactive)
C/C(=N\O)c1cccc(Nc2nc3ccccc3c3occc23)c1: 4.35 µM (inactive)
CC(C)(C)NC1C2CCC(C)(C1O)C2(C)C (stereo not given): > 100 µM (inactive)
CCOC(=O)c1cc2cc(N(C(C)=O)C(C)=O)ccc2s1: 38.5 µM (inactive)
CC(=O)OCC1OC(OC2CC3C(C)(C)C(OC(C)=O)CC[C@]3(C)C3CCC45CC4(CC[C@H]5C(C)CC(O)C4OC4(C)C)[C@]23C)C(O)C(O)C1O (stereo not given in full): 1.79 µM (inactive)
COC[C@@H](/N=C/C(C)(C)C)C(C)C: > 100 µM (inactive)
C[C@@H]1[C@@H](c2ccccc2)O[B-](c2ccccc2)(c2ccccc2)[N+]1(C)C: > 100 µM (inactive)
